Each recorded value in this set is attributed to patent US20110262445A1.

- SYSTEM NAME: T1, human IL-12 (human, UniProt P29460 23-328; P29459 23-219)
- T1 construct: Recombinant (Peprotech); FLAG-tagged IL-12 in the flow cytometry assays, biotinylated in the IL-12Rβ2 assay; also called hIL-12
- T1 sequence 1: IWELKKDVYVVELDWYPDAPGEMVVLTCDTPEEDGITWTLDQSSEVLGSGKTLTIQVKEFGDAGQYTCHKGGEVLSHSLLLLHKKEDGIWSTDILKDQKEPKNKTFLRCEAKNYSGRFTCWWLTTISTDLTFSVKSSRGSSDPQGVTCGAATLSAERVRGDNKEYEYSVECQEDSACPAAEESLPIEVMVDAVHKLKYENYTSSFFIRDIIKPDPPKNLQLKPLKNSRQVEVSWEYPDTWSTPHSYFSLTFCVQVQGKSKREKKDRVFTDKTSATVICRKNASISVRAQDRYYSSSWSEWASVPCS
- T1 sequence 2: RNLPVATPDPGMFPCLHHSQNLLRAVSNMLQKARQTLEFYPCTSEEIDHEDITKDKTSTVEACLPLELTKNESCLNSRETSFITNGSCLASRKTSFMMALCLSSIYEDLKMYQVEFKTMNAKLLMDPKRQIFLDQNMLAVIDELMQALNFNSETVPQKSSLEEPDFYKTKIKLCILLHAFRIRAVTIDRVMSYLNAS
- METHOD SUMMARY: SPR, single 81 nM analyte, scFv via FLAG
TEST READOUT: pKd
Expect pKd as a plain number equal to -log10 of the molar concentration.

BINDER	pKd
scFv combo. # 5 (scFv, scFv-80 with VH T28A; VL S63F; not shown: proprietary C-terminal FLAG tag) scFv: QVQLVQSGAEVKKPGASVKVSCKASGYAFTDYYLHWVRQAPGQGLEWMGWIDPENGDTEYAPKFQGRVTMTTDTSTSTAYMELRSLRSDDTAVYYCNANKELRYFDVWGQGTMVTVSSGGGGSGGGGSGGGGSEIVMTQSPATLSVSPGERATLSCRASQSISINLHWYQQKPGQAPRLLIYFASQSISGIPARFFGSGSGTEFTLTISSLQSEDFAVYYCQQSNSFPLTFGGGTKVEIKR	10.42
scFv combo. # 15 (scFv, scFv-80 with VH F29L; VL S63F; not shown: proprietary C-terminal FLAG tag) scFv: QVQLVQSGAEVKKPGASVKVSCKASGYTLTDYYLHWVRQAPGQGLEWMGWIDPENGDTEYAPKFQGRVTMTTDTSTSTAYMELRSLRSDDTAVYYCNANKELRYFDVWGQGTMVTVSSGGGGSGGGGSGGGGSEIVMTQSPATLSVSPGERATLSCRASQSISINLHWYQQKPGQAPRLLIYFASQSISGIPARFFGSGSGTEFTLTISSLQSEDFAVYYCQQSNSFPLTFGGGTKVEIKR	10.41
scFv combo. # 4 (scFv, scFv-80 with VH F29L; VL S26P; not shown: proprietary C-terminal FLAG tag) scFv: QVQLVQSGAEVKKPGASVKVSCKASGYTLTDYYLHWVRQAPGQGLEWMGWIDPENGDTEYAPKFQGRVTMTTDTSTSTAYMELRSLRSDDTAVYYCNANKELRYFDVWGQGTMVTVSSGGGGSGGGGSGGGGSEIVMTQSPATLSVSPGERATLSCRAPQSISINLHWYQQKPGQAPRLLIYFASQSISGIPARFSGSGSGTEFTLTISSLQSEDFAVYYCQQSNSFPLTFGGGTKVEIKR	10.57

Continue with the binder presented below.
Please give measured pKd of the following entry: scFv combo. # 16 (scFv, scFv-80 with VH F29L; VL S52R; not shown: proprietary C-terminal FLAG tag) scFv: QVQLVQSGAEVKKPGASVKVSCKASGYTLTDYYLHWVRQAPGQGLEWMGWIDPENGDTEYAPKFQGRVTMTTDTSTSTAYMELRSLRSDDTAVYYCNANKELRYFDVWGQGTMVTVSSGGGGSGGGGSGGGGSEIVMTQSPATLSVSPGERATLSCRASQSISINLHWYQQKPGQAPRLLIYFARQSISGIPARFSGSGSGTEFTLTISSLQSEDFAVYYCQQSNSFPLTFGGGTKVEIKR
10.30
